- Test system: NCI-H460 lung
Quantity measured: GI50

Under NCI-H460 lung: GI50 value of `CN(C)C(=S)N=Nc1c(O)[nH]c2ccccc12` ?
0.374 µM

Similarly, C=C1CC[C@@H]2[C@](C)(COC(C)=O)[C@H](OC(C)=O)CC[C@@]2(C)[C@@H]1CC(Nc1ccc(S(=O)(=O)Nc2nccc(C)n2)cc1)C1=CCOC1=O (stereo partly drawn) ?
4.88 µM

Try the compound `C[C@H]1[C@H](C)CC[C@]2(C(=O)O)CC[C@]3(C)C(=CC[C@@H]4[C@@]5(C)C/C(=C/c6cccnc6)[C@H](O)C(C)(C)[C@@H]5CC[C@]43C)[C@H]12`
8.88 µM

// same read-out, input: `O=C1C(Cl)=C(Nc2cccc(O)c2)C(=O)N1c1cc(Cl)c(Cl)cc1Cl`
18 µM

Similarly, `O=C(CCl)N1c2ccccc2Sc2c1ccc1ccccc21` ?
2.11 µM

Moving on to `Fc1cccc(COc2ccc(Nc3ncnc4cc(-c5ccc[nH]5)sc34)cc2Cl)c1`
2.09 µM

What do we get for `C=C1C(=O)O[C@H]2[C@H]1CC/C(COC(=O)N1CCC[C@H]1C(=O)Nc1ccc(OC)c(C(N)=O)c1O)=C\CC[C@@]1(C)O[C@@H]21` ?
11.4 µM

Also need `CCCCN(Cc1ccc(F)cc1)c1ccc(CO)c(Cl)c1` , thanks.
2.46 µM

----------
Record form. Attribute: TGI. Fill in for each entry.
- System: EKVX NSCLC
- Method description: NCI tumour cell line growth inhibition, 48 h

So what does the record say about TGI for `N#Cc1ccc(OCc2nc3cc(C(F)(F)F)ccc3nc2-c2ccccc2)cc1` ?
> 100 µM

What about this molecule? `C#C[C@]1(O)CC[C@H]2[C@@H]3CCc4cc(OC(=O)c5cccc6cc7ccccc7nc56)ccc4[C@H]3CC[C@@]21C`
> 100 µM

Next entry: `S=c1[nH]c2ccc(Br)cc2c(=S)n1-c1ccccc1`
> 100 µM

Try the molecule `CCOc1cc(NC(C)=O)ccc1C(=O)NN1C(=O)/C(=C/c2cc(OC)c(OC)c(OC)c2)N=C1c1ccccc1`
> 100 µM

Also check `c1ccc(-c2nn(-c3ccccc3)[n+](-c3ccccc3)n2)cc1`
> 43 µM

Request: `C#CC[C@@H]1C[C@]2(C)[C@H]3CC=C4[C@H]5CC(C)(C)CC[C@]5(C(=O)NCCCCN)CC[C@@]4(C)[C@]3(C)CC[C@H]2C(C)(C)[C@H]1OC(C)=O`
3.3 µM

And then `O=C1/C(=C/c2ccc(O)cc2)COc2ccc(-c3ccccc3)cc21` , what is it?
32.1 µM

Also `Cc1ccc2c(n1)C(=O)c1ccccc1C2=O` ?
96.3 µM

Check `Nc1nc(Cl)cc(Nc2cc(Cl)cc(Cl)c2)n1` too.
45.7 µM

// next record `CN(CCc1ccc(N)cc1)[C@H]1CCCC[C@H]1N1CCCC1`
> 100 µM

# iterate: COc1cc(COC(=O)N2CCC2C(=O)O)c([N+](=O)[O-])cc1OC (stereo unspecified)
> 100 µM

Another: `CCC(CC)n1c(C)nc2c1C(=O)c1ccccc1C2=O`
> 100 µM

Now the same for `COc1cc(-c2cn(-c3ccc(Cl)cc3)c(C)c2C(=O)C(F)(F)F)cc(OC)c1OC`
> 100 µM

Try this molecule next: CC(=O)Nc1ccc2c3c(cc(O)c2c1)N(C(=O)CCCCC(=O)Nc1ccc2c4c(cc(O)c2c1)N(C(=O)OC(C)(C)C)CC4CCl)CC3CCl (stereo unspecified)
35.2 µM

And what about the molecule Clc1ccc(C2NN=C3c4ccccc4OCC32)cc1 (stereo unspecified) ?
27.2 µM

What would you report for `CCOC(=O)C(=O)Nc1c(C)cccc1C` ?
> 100 µM

# repeat for `Cc1ccc(S(N)(=O)=O)cc1`
> 1000 µM

Would you mind doing `Cc1ccc(Nc2cc(=O)[nH]c(=S)[nH]2)cc1` as well?
> 100 µM

Please give the result for `CN=S(=O)(c1ccccc1)c1ccccc1` too.
> 100 µM

Now consider `CSc1ccc(/C=C2\N=C(c3ccccc3)N(c3nc4ccc(Sc5ccccc5)cc4[nH]3)C2=O)cc1` .
> 100 µM

`COc1ccc(-c2cncn2-c2ccc(OC)cc2)cc1` , same question.
27.1 µM

Same thing, different molecule: `COc1ccc2oc3cccc(NCCN(C)C)c3c(=O)c2c1`
29.2 µM

Thanks! And `Cc1nc2c(sc3nc4ccccc4n32)c(=O)[nH]1` ?
> 100 µM

One more molecule: CCOC(=O)C(NC(=O)Nc1ccc(Cl)c(Cl)c1)C(F)(F)F (stereo unspecified)
> 100 µM

Same question for `COC(=O)c1cc(C#Cc2cc(OC)ccc2OC)ccc1OC` please.
> 100 µM

Next entry: `CN(C)c1ccc(N=Nc2ccccn2)cc1`
> 100 µM

Now this one: CC(CNC(Cc1ccccc1)c1ccccc1)NC(Cc1ccccc1)c1ccccc1 (stereo unspecified)
9.16 µM

Input `Cc1cccc(NC(=S)Nc2ccccc2Cl)n1`
67.8 µM

N#CC1(C#N)NC(c2ccsc2)C(C#N)(C#N)NC1c1ccsc1 (stereo unspecified) ?
> 100 µM

Similarly, CC1C[C@]2(C)C(=O)N(c3ccccc3)C(=N)[C@@H]2N(C)c2ccccc21 (stereo partly specified) ?
> 100 µM

Entry CC1C(=O)C(C)C(c2ccccc2)N(N=O)C1c1ccccc1 (stereo unspecified) please
> 1000 µM

Try this molecule too: `C[Si](C)(OCCS(=O)(=O)O)C1S(=O)(=O)OCCOS1(=O)=O`
> 100 µM

Request: `CC(=O)Oc1ccc(O)c(O)c1C/C=C(\C)CC/C=C(\C)CC/C=C(\C)CCC=C(C)C`
3.81 µM

Now try CC(=O)NC1=C(C)C(=O)c2c(nc3n2CCC3O)C1=N (stereo unspecified) .
37 µM

Queued: `O=c1[nH]nc(Cc2ccccc2)n1Nc1ccccc1`
> 100 µM

Same question for CCC(CCCC[C@@H]1CC[C@H]2CC(=O)C[C@@H]12)OC (stereo partly specified) please.
> 100 µM

Next entry: CCC1C(c2cc(OC)c(OC)c(OC)c2)c2cc3c(cc2OC1N1CCOCC1)OCO3 (stereo unspecified)
54.1 µM

Another molecule to look at: CC(C)(Br)C1(O)CCCN1C(=O)c1ccccc1 (stereo unspecified)
> 100 µM

What would you report for `Cc1nc2ccccc2c(=O)[nH]1` ?
> 100 µM

Quick one: `O=NNc1nc(-c2cccnc2)nc2ccccc12`
> 100 µM

Check CSC1=C(c2ccc(Cl)cc2)SC(N2CCCCC2)N1c1ccc([N+](=O)[O-])cc1 (stereo unspecified) too.
> 100 µM

Would you kindly repeat that for `CC(=O)Nc1ccc2c(c1)oc(=O)c1cc(NC(C)=O)ccc12` ?
> 100 µM

Next molecule: `COc1cc(CNc2ccc(C(C)C)cc2)cc(OC)c1OC`
> 100 µM

Input `Nc1nc2c(c(=O)[nH]1)CN(c1ccc(S(N)(=O)=O)cc1)CN2`
> 100 µM

Then this molecule: C=C1C(=O)OC2C1CC(O)/C(C)=C\CCC1(C)OC21 (stereo unspecified)
> 100 µM

Also CCOP(=O)(OCC)C(NC(c1ccccc1)c1ccccc1)c1cccc2ccccc12 (stereo unspecified) , if possible.
35.5 µM

----------
- Tested on: HOP-18 NSCLC
- Method description: NCI tumour cell line growth inhibition, 48 h
Quantity measured: TGI

For the compound `OCCCCCCOc1ccc(-c2cc(-c3ccccn3)nc(-c3ccccn3)c2)cc1` , what TGI is on record?
3.99 µM

Do the same for `S=c1[nH]c2ccc(Br)cc2c(=S)n1-c1ccccc1` please
85.4 µM

For `CN=S(=O)(c1ccccc1)c1ccccc1` then?
> 100 µM

Same again, this time with COC(=O)C1C2C=CC(C2)N1[C@@H](C)c1ccccc1 (some centres undefined)
> 100 µM

Next record, please: `Cc1cccc(C(C)C)c1NC(=O)C(=O)CC(=O)c1c(C)n([O-])c2ccccc2[n+]1=O`
> 100 µM

How about this compound: `CCOC(=O)/C=C(\C)c1ccc(OC)cc1`
> 100 µM

// same read-out, input: COc1ccc(C2S/C(=C\c3ccc(O)cc3)C(=O)N2NC(=O)Cc2ccccc2)cc1 (centres undefined)
> 100 µM

Next compound up: CCCCCCCCCCCCCCCCCCCCCC(=O)Nc1ccn(C2OC(CO)C(O)C2O)c(=O)n1 (centres undefined)
> 100 µM

What about `Cn1nc(-c2ccccc2)c(C(=O)/C=C/c2ccccc2)c(N2CCOCC2)c1=O` ?
89.7 µM

Same read-out for COc1cc([C@@H]2c3cc4c(cc3[C@@H](NC(=O)c3ccccc3)C3COC(=O)[C@@H]32)OCO4)cc(OC)c1O (some centres undefined) ?
> 100 µM

// repeat for `O=C1CC[C@@H](S(=O)(=O)c2ccccc2)[C@@H](/C=C/c2ccccc2)O1` and report
> 100 µM

Could you do the same for `CC(C)CC1=[N+]=C(NC#N)N=C(CCC(=O)Nc2ccccc2[N+](=O)[O-])C1` , please?
> 100 µM

# iterate: `CCCCCCCCCc1cc(=O)c2ccc(O)cc2o1`
> 100 µM

// query: `CCOC(=O)C(=O)Nc1c(C)cccc1C`
> 100 µM

The reported numbers originate from PubChem BioAssay (NCI).
